- experimental.details: Drug distribution in Sprague-Dawley rat heart at 1 mg/kg, iv measured after 2 hrs by LC-MS/MS analysis
- Format: ADME, organism-based
- applied.conditions: read-out: Drug uptake
parameter: concentration at 2 h (ng/g)
Number only, in ng/g; omit the unit.

// query Request the reported concentration at 2 h associated with COc1ccc(NS(=O)(=O)c2ccc(N3CCN(Cc4cccc([N+](=O)[O-])c4)CC3)c([N+](=O)[O-])c2)cn1
// result 118

* * *

- experimental.details: Drug distribution in Sprague-Dawley rat heart at 10 mg/kg, po measured after 1 hrs by LC-MS/MS analysis
- Format: ADME, organism-based
- applied.conditions: read-out: Drug uptake
parameter: concentration at 1 h (ng/g)
Please state the figure in ng/g; there is no need to write the unit.

// query Return reported concentration at 1 h; argument: COc1ccc(NS(=O)(=O)c2ccc(N3CCN(Cc4cccc([N+](=O)[O-])c4)CC3)c([N+](=O)[O-])c2)cn1
// result 10.6

* * *

- experimental.details: Drug distribution in Sprague-Dawley rat spleen at 10 mg/kg, po measured after 1 hrs by LC-MS/MS analysis
- Format: ADME, organism-based
- applied.conditions: read-out: Drug uptake
parameter: concentration at 1 h (ng/g)
Report only the number, with the unit ng/g understood.

// query I have this compound here, COc1ccc(NS(=O)(=O)c2ccc(N3CCN(Cc4cccc([N+](=O)[O-])c4)CC3)c([N+](=O)[O-])c2)cn1 , and I need its recorded concentration at 1 h.
// result 78.8

* * *

- experimental.details: Half-life in Sprague-Dawley rat at 10 mg/kg, po measured at 15 to 1440 min by LC-MS/MS analysis
- Assay type: ADME, organism-based
- applied.conditions: in vivo, time 15-1440 min
parameter: half-life (h)
Could you give me the number in h? Just the number is fine.

// query Fill blank: measured half-life of the compound COc1ccc(NS(=O)(=O)c2ccc(N3CCN(Cc4cccc([N+](=O)[O-])c4)CC3)c([N+](=O)[O-])c2)cn1 is ____.
// result 7

* * *

- experimental.details: Drug distribution in Sprague-Dawley rat kidney at 1 mg/kg, iv measured after 4 hrs by LC-MS/MS analysis
- Assay type: ADME, organism-based
- applied.conditions: read-out: Drug uptake
parameter: concentration at 4 h (ng/g)
Give just the number in ng/g; leave the unit off.

// query Reported concentration at 4 h for COc1ccc(NS(=O)(=O)c2ccc(N3CCN(Cc4cccc([N+](=O)[O-])c4)CC3)c([N+](=O)[O-])c2)cn1 : what is it?
// result 250

* * *

- experimental.details: Cmax in Sprague-Dawley rat at 1 mg/kg, iv measured at 5 to 1440 min by LC-MS/MS analysis
- Format: ADME, organism-based
- Design: time upper 1440 min, dose 1 mg/kg, time lower 5 min, route iv
- applied.conditions: in vivo
parameter: Cmax (µg/mL)
# unit: µg/mL | format: bare number

// query Need Cmax of COc1ccc(NS(=O)(=O)c2ccc(N3CCN(Cc4cccc([N+](=O)[O-])c4)CC3)c([N+](=O)[O-])c2)cn1 , thanks.
// result 2.77

* * *

- experimental.details: Drug distribution in Sprague-Dawley rat liver at 10 mg/kg, po measured after 8 hrs by LC-MS/MS analysis
- Type: ADME, organism-based
- applied.conditions: read-out: Drug uptake
parameter: concentration at 8 h (ng/g)
The answer is to be given in ng/g; state only the numeric part.

// query Can you look up the measured concentration at 8 h of COc1ccc(NS(=O)(=O)c2ccc(N3CCN(Cc4cccc([N+](=O)[O-])c4)CC3)c([N+](=O)[O-])c2)cn1 for me?
// result 249

* * *

- experimental.details: Tmax in Sprague-Dawley rat at 1 mg/kg, iv measured at 5 to 1440 min by LC-MS/MS analysis
- Format: ADME, organism-based
- applied.conditions: in vivo, time 5-1440 min
parameter: Tmax (min)
// return numeric value only (unit: min, not printed)

// query Which measured Tmax value corresponds to COc1ccc(NS(=O)(=O)c2ccc(N3CCN(Cc4cccc([N+](=O)[O-])c4)CC3)c([N+](=O)[O-])c2)cn1 ?
// result 6

* * *

- experimental.details: Drug distribution in Sprague-Dawley rat lung at 1 mg/kg, iv measured after 0.5 hrs by LC-MS/MS analysis
- Assay type: ADME, organism-based
- applied.conditions: read-out: Drug uptake
parameter: concentration at 0.5 h (ng/g)
Use ng/g as the unit, but write only the number.

// query I have this compound here, COc1ccc(NS(=O)(=O)c2ccc(N3CCN(Cc4cccc([N+](=O)[O-])c4)CC3)c([N+](=O)[O-])c2)cn1 , and I need its recorded concentration at 0.5 h.
// result 98.2

* * *

- experimental.details: Drug distribution in Sprague-Dawley rat liver at 1 mg/kg, iv measured after 2 hrs by LC-MS/MS analysis
- Format: ADME, organism-based
- applied.conditions: read-out: Drug uptake
parameter: concentration at 2 h (ng/g)
Write the answer as a number in ng/g, unit excluded.

// query Looking for the measured concentration at 2 h of COc1ccc(NS(=O)(=O)c2ccc(N3CCN(Cc4cccc([N+](=O)[O-])c4)CC3)c([N+](=O)[O-])c2)cn1 , can you help?
// result 192

* * *

- experimental.details: Drug distribution in Sprague-Dawley rat heart at 10 mg/kg, po measured after 8 hrs by LC-MS/MS analysis
- Format: ADME, organism-based
- applied.conditions: read-out: Drug uptake
parameter: concentration at 8 h (ng/g)
Write it as a number; the unit ng/g goes unstated.

// query Look at this compound and give its reported concentration at 8 h. COc1ccc(NS(=O)(=O)c2ccc(N3CCN(Cc4cccc([N+](=O)[O-])c4)CC3)c([N+](=O)[O-])c2)cn1
// result 452

* * *

- experimental.details: Drug distribution in Sprague-Dawley rat liver at 10 mg/kg, po measured after 1 hrs by LC-MS/MS analysis
- Format: ADME, organism-based
- applied.conditions: read-out: Drug uptake
parameter: concentration at 1 h (ng/g)
Enter your answer as a number in ng/g; do not include the unit.

// query What value of measured concentration at 1 h is listed for COc1ccc(NS(=O)(=O)c2ccc(N3CCN(Cc4cccc([N+](=O)[O-])c4)CC3)c([N+](=O)[O-])c2)cn1 ?
// result 267

* * *

- experimental.details: Drug distribution in Sprague-Dawley rat liver at 10 mg/kg, po measured after 3 hrs by LC-MS/MS analysis
- Type: ADME, organism-based
- applied.conditions: read-out: Drug uptake
parameter: concentration at 3 h (ng/g)
Numeric answer only, unit ng/g assumed.

// query concentration at 3 h value for entry COc1ccc(NS(=O)(=O)c2ccc(N3CCN(Cc4cccc([N+](=O)[O-])c4)CC3)c([N+](=O)[O-])c2)cn1
// result 287

* * *

parameter: pKd
Lab note: report pKd as minus log10 of the concentration in molar units, number only.

// query Enter reported pKd observed with UniProtKB Q99836 for COc1ccc(NS(=O)(=O)c2ccc(N3CCN(Cc4cccc([N+](=O)[O-])c4)CC3)c([N+](=O)[O-])c2)cn1
Sequence (Q99836 whole entry): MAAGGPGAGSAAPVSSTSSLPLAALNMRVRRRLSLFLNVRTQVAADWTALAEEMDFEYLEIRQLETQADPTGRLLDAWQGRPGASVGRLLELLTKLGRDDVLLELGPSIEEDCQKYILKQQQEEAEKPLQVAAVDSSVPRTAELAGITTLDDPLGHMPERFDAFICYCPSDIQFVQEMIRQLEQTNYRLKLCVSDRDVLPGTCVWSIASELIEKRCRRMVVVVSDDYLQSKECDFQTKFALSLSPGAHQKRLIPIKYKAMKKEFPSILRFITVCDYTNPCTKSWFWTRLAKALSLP
// result 4.28

* * *

- experimental.details: Drug distribution in Sprague-Dawley rat kidney at 1 mg/kg, iv measured after 2 hrs by LC-MS/MS analysis
- Format: ADME, organism-based
- applied.conditions: read-out: Drug uptake
parameter: concentration at 2 h

// query Dear colleague, I am looking for the recorded concentration at 2 h of the following compound: COc1ccc(NS(=O)(=O)c2ccc(N3CCN(Cc4cccc([N+](=O)[O-])c4)CC3)c([N+](=O)[O-])c2)cn1
// result 143 ng/g

* * *

- experimental.details: Drug distribution in Sprague-Dawley rat kidney at 10 mg/kg, po measured after 8 hrs by LC-MS/MS analysis
- Type: ADME, organism-based
- applied.conditions: read-out: Drug uptake
parameter: concentration at 8 h (ng/g)
Report the figure in ng/g without appending any unit label.

// query What does the record list as concentration at 8 h for COc1ccc(NS(=O)(=O)c2ccc(N3CCN(Cc4cccc([N+](=O)[O-])c4)CC3)c([N+](=O)[O-])c2)cn1 ?
// result 656

* * *

- experimental.details: Drug distribution in Sprague-Dawley rat spleen at 1 mg/kg, iv measured after 2 hrs by LC-MS/MS analysis
- Format: ADME, organism-based
- applied.conditions: read-out: Drug uptake
parameter: concentration at 2 h (ng/g)
The reply should be a number in ng/g, with the unit left off.

// query Could you share which concentration at 2 h value was measured for COc1ccc(NS(=O)(=O)c2ccc(N3CCN(Cc4cccc([N+](=O)[O-])c4)CC3)c([N+](=O)[O-])c2)cn1 ?
// result 76.8

* * *

- experimental.details: Drug distribution in Sprague-Dawley rat spleen at 1 mg/kg, iv measured after 0.5 hrs by LC-MS/MS analysis
- Type: ADME, organism-based
- applied.conditions: read-out: Drug uptake
parameter: concentration at 0.5 h
Number plus unit, in that order.

// query Consider the molecule COc1ccc(NS(=O)(=O)c2ccc(N3CCN(Cc4cccc([N+](=O)[O-])c4)CC3)c([N+](=O)[O-])c2)cn1 and give its measured concentration at 0.5 h.
// result 32.2 ng/g
